The measured values listed here are drawn from ChEMBL document CHEMBL1128522.

Species on record: Rattus norvegicus
Assay: The compound was tested for enhancement of electrically induced release of [3H]GABA from rat cortical slices.
Assay type: functional
readout kind: EC150 (µM)
All answers are understood in µM, so give the number only.

In plain terms, NCCCP(=O)(O)CCC1CCCCO1 (centres undefined) has a documented EC150 of 30

----------
Molecular target: Gamma-aminobutyric acid type B receptor subunit 1 (Rattus norvegicus)
Sequence (Q9Z0U4 whole entry): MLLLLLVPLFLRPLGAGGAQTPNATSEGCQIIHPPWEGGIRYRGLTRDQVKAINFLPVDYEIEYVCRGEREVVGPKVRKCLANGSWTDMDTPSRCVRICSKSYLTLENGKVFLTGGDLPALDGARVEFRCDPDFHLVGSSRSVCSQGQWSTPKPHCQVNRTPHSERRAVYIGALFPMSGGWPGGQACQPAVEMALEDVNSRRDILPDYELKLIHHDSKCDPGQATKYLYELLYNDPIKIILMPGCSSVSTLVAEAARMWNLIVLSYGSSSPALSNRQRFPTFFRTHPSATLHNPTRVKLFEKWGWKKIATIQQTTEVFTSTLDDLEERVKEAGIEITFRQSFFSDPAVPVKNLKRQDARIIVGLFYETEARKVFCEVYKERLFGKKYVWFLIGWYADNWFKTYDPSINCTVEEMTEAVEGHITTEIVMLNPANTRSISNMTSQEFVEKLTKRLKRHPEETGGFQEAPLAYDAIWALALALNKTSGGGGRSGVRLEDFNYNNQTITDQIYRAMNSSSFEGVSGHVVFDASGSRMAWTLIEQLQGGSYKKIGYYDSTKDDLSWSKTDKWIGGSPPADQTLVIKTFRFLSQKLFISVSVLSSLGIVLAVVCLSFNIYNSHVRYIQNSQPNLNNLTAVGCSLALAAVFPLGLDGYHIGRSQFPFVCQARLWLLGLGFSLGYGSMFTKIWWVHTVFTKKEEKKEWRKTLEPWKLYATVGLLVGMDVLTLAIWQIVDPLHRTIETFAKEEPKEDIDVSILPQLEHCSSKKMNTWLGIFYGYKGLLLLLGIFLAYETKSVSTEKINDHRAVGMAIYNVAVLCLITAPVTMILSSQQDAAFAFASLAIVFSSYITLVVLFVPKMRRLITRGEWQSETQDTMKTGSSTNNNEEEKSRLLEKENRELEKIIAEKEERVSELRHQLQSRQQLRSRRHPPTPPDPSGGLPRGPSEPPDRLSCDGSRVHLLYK
Assay: Inhibition of binding of [3H]CGP-27492 to gamma-aminobutyric acid type B receptor of rat cortex.
Reported log10 of IC50 is given for each of the following compounds.
Values below are the log10 of the recorded IC50, with µM as the unit.

Some solved cases for reference:
| compound | target entity | log10 of IC50 |
| --- | --- | --- |
| NCC(O)CP(=O)(O)CC1CCCCC1 (stereo not drawn) | Gamma-aminobutyric acid type B receptor subunit 1 (Rattus norvegicus) | 0.70 |
| NCCCP(=O)(O)CN | Gamma-aminobutyric acid type B receptor subunit 1 (Rattus norvegicus) | 1.70 |
| NC[C@H](O)CP(=O)(O)CC1CCCCC1 | Gamma-aminobutyric acid type B receptor subunit 1 (Rattus norvegicus) | 0.70 |
| CCCCP(=O)(O)C(O)CCN (stereo not drawn) | Gamma-aminobutyric acid type B receptor subunit 1 (Rattus norvegicus) | 1.57 |
| NCCCP(=O)(O)c1ccccc1 | Gamma-aminobutyric acid type B receptor subunit 1 (Rattus norvegicus) | 2.10 |

In plain terms, NCCCP(=O)(O)CC1CCCCO1 (stereo not drawn) has a documented log10 of IC50 of 1.51

In plain terms, CCOC(OCC)P(=O)(O)CCCN has a documented log10 of IC50 of 1.43

In plain terms, CCOC(OCC)P(=O)(O)CC(CN)c1ccc(Cl)cc1 (stereo not drawn) has a documented log10 of IC50 of 1.32
